# ASSAY_PROTOCOL: RP, Waters ACQUITY UPLC HSS T3, 100 × 2.1 mm, 1.8 µm, 30 °C, 0.3 mL/min, estimated dead time 0.73 min; A: water + 0.1% formic acid, pH 3; B: methanol + 0.1% formic acid, pH 3; gradient (min/%B) 0/0 6/0 56/100 60/100
# ASSAY_CONDITIONS: stereoisomer not certain
VALUE_KIND: LC retention time (min)

{"MOLECULE": "CC1=CCCC(C)(C)C12CCC(C)O2 (racemic)", "OBS_VALUE": 48.1}

[I] CC(=O)NC(CS)C(=O)O (stereo unspecified)
[II] COc1cc(C=CC=O)ccc1O
-- ask Could you determine which record has the numerically smaller LC retention time? Candidates: I and II State your choice using its label.
-- reply I

[I] O=c1ccn(C2OC(CO)C(O)C2O)c(=O)[nH]1 (stereo unspecified)
[II] O=C(O)c1ccc(O)cc1 [4-hydroxybenzoic acid]
[III] O=C(O)C=Cc1cccc(O)c1
-- ask rank_up(items): orders items by reported LC retention time in ascending numerical order. // respond by listing labels in the order requested
-- reply I, II, III
(I: 7 min, II: 17.5 min, III: 26.2 min)

All figures here come from the RepoRT retention time repository (doi:10.1007/s11306-011-0298-z).
